test: Kcat/Km against class C P99 beta-lactamase catalyzed lactone hydrolysis; format: ADME
endpoint: Ratio (M⁻¹ s⁻¹)

>  <smilesInput>
O=C(Cc1ccccc1)N[C@@H](Cc1cccc(C(=O)O)c1O)B(O)O

>  <endpoint>
Ratio

>  <unitsLabel>
M⁻¹ s⁻¹

>  <observedResult>
19000

$$$$
>  <smilesInput>
O=C(Cc1ccccc1)N[C@H]1Cc2cccc(C(=O)O)c2OC1=O

>  <endpoint>
Ratio

>  <unitsLabel>
M⁻¹ s⁻¹

>  <observedResult>
8700

$$$$
>  <smilesInput>
CC(=O)OCC1=C(C(=O)O)N2C(=O)[C@@H](NC(=O)Cc3cccs3)[C@H]2SC1

>  <endpoint>
Ratio

>  <unitsLabel>
M⁻¹ s⁻¹

>  <observedResult>
22000000

$$$$

----------
Listing of entries alongside the reported Km.
test: Km against class A TEM beta-lactamase catalyzed lactone hydrolysis; type: ADME
endpoint: Km (µM)

>  <compound>
O=C(Cc1ccccc1)N[C@H]1Cc2cccc(C(=O)O)c2OC1=O

>  <endpoint>
Km

>  <comparisonSymbol>
=

>  <observedResult>
53

$$$$
>  <compound>
CC(=O)OCC1=C(C(=O)O)N2C(=O)[C@@H](NC(=O)Cc3cccs3)[C@H]2SC1 [CEPHALOTHIN]

>  <endpoint>
Km

>  <comparisonSymbol>
=

>  <observedResult>
200

$$$$
>  <compound>
O=C(Cc1ccccc1)N[C@@H](Cc1cccc(C(=O)O)c1O)B(O)O

>  <endpoint>
Km

>  <comparisonSymbol>
>

>  <observedResult>
1000

$$$$

----------
This listing pairs compounds with measured Km.
assay: Km against class A PCI beta-lactamase catalyzed lactone hydrolysis; type: ADME

>  <smilesInput>
O=C(Cc1ccccc1)N[C@@H](Cc1cccc(C(=O)O)c1O)B(O)O

>  <comparisonSymbol>
=

>  <Km (µM)>
15

$$$$
>  <smilesInput>
O=C(Cc1ccccc1)N[C@H]1Cc2cccc(C(=O)O)c2OC1=O

>  <comparisonSymbol>
=

>  <Km (µM)>
0.304

$$$$
>  <smilesInput>
CC(=O)OCC1=C(C(=O)O)N2C(=O)[C@@H](NC(=O)Cc3cccs3)[C@H]2SC1

>  <comparisonSymbol>
≤

>  <Km (µM)>
1

$$$$
